# measured_target: MK-2 (Homo sapiens)
# Sequence (P49137 whole entry, species assumed): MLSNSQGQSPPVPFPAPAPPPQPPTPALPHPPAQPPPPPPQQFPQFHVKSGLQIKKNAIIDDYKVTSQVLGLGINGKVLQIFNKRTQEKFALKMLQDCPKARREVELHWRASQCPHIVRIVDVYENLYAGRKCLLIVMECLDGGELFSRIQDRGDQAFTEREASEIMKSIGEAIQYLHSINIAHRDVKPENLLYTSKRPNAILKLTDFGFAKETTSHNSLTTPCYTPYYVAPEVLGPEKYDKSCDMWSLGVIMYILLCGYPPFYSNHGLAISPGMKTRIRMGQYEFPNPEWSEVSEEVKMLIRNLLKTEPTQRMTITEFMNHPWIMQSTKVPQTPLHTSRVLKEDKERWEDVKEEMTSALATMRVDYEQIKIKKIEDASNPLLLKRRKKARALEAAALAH
# protocol_description: Determination of MK-2 IC50 (phosphorylation of HSP-peptide, anion exchange resin capture assay)
# Format: biochemical
# assay_setup: additional values are replicate IC50 experiments; mixture of stereoisomers implied unless otherwise noted; read-out: MK-2 Avg. IC50
pIC50: −log10 of the molar value.
measurement_name: pIC50

COC(=O)CC1NCCc2c1[nH]c1ccc(OC)cc21 (stereo not drawn); < 3.70
COC(=O)C1(C)NCCc2c1[nH]c1ccccc21 (stereo not drawn) [Example 235]; < 3.70
COC(=O)C12CCC(=O)N1CCc1c2[nH]c2ccc(OC)cc12 (stereo not drawn); < 3.70

The reported numbers originate from patent US20050137220A1.
